tested on: Escherichia coli ATCC 25922; format: cell-based; settings: ATCC 25922
Non-standard residues stand in square brackets, D forms with d. Residues, ends and D or L forms follow the SMILES beside them. *: point of attachment. Octanoyl(7-Me) = CC(C)CCCCCC(=O)*; dOrn = NCCC[C@@H](N)C(=O)O
MEASURED_PROPERTY: Minimum inhibitory concentration (MIC) (µg/mL)

>  <COMPOUND>
CC[C@H](C)[C@H](NC(=O)[C@@H](NC(=O)[C@H](Cc1c[nH]c2ccccc12)NC(=O)[C@@H](CCCN)NC(=O)CNC(=O)[C@H](C)NC(=O)[C@@H](CCCN)NC(=O)[C@@H](Cc1c[nH]c2ccccc12)NC(=O)[C@@H](Cc1ccc(O)cc1)NC(=O)[C@@H](CO)NC(=O)CCCCCC(C)C)[C@@H](C)O)C(=O)N[C@@H](CC(N)=O)C(=O)NCC(=O)NCC(N)=O [Ala5 (Orn→Ala), FA-sywoAGoWTINGG-CONH2] ({Octanoyl(7-Me)}-[dS][dY][dW][dOrn]AG[dOrn]WTINGG-NH2)

>  <UOM>
µg/mL

>  <REPORTED_MEASUREMENT>
32

$$$$
